- study-target: rat RXFP2 (Rattus norvegicus, UniProt F7EMH8)
- Sequence (F7EMH8 20-737): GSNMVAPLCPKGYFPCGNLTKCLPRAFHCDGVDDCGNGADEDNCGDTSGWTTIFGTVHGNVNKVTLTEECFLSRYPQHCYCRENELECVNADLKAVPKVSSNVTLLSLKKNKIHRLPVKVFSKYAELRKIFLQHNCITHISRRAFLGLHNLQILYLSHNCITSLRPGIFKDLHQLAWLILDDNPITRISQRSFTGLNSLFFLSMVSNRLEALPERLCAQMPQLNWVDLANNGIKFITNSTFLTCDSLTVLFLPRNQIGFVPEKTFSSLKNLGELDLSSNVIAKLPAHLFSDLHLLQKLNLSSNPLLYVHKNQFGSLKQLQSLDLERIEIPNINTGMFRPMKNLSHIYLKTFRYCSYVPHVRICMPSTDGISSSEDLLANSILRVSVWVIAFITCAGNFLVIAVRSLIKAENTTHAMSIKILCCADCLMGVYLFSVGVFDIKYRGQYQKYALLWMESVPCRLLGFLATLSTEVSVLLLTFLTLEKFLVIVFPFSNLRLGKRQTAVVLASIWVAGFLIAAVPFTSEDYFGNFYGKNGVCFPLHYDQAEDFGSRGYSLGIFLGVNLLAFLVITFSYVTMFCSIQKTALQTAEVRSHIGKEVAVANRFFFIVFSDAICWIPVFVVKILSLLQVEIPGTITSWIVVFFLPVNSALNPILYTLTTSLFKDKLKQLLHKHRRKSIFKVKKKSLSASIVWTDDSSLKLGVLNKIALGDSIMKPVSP
- method-description: INSL3-stimulated cAMP assay in HEK293 stably expressing rat RXFP2;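 note: cAMP measured with an HitHunter kit in 384-well plates, 11-point dose–response curves up to 1 µM antibody, four-parameter variable-slope fit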
- study-conditions: read-out: HEK293-rat RXFP2 cAMP IC50; INSL3 EC80-stimulated cAMP, stable expression; N = 2
measured-attribute: pIC50
Answers are plain numbers, as −log10 of the molar value.

// for each molecule below, give its pIC50
1. 4H2: RXFP2 monoclonal antibody from hybridoma, recombinantly expressed in a rat IgG2b backbone (antibody, V domains shown) VH: QVQLRQSGPSLVQPSQSLSITCTVSGFSLTNYGVHWVRQSPGKGLEWLGVIWRGGNTDHNAAFMSRLSITKDNSESQVFFKMNSLQVDDTAIYYCAKAEGYYALDYWGQGTSVTVYS VL: DIQMTQSPASLSVSVGETVTITCRASENIYSNLAWYQQKQGKSPQLLVYAVTNLADGVPSRFSGSGSGTQYSLKINSLQSEDFGSYYCQHFWGTPWTFGGGTKLEIK
2. 1F2: RXFP2 monoclonal antibody from hybridoma, recombinantly expressed in a rat IgG2b backbone (antibody, V domains shown) VH: QVQLKQSGPGLVQPSQSLSITCTVSGFSLTAYGVNWVRQSPGKGLEWLGVIWSGGNTDYNAPFISRLSITKDNSKSQVFFKMNSLEADDTAIYYCARAKGYYAMDYWGQGTSVTVSS VL: DIQMTQSPASLSVSVGESVTITCRATENIYSNLVWYQQKQGQSPQLLVYAVTSLADGVPSRFSGSGSGTQYSLKINSLQSEDFGTYYCQHFWGTPYTFGGGTKLEIK
3. 1G1: RXFP2 monoclonal antibody from hybridoma, recombinantly expressed in a rat IgG2b backbone (antibody, V domains shown) VH: EVQLQQSGPELVKPGASVKMSCKASGYTFTDYNMHWVKQKPGQGLEWIGYINPYNDGTEYNEKFKGKATLTSDKSSSTAYMDLSSLTSEDSAVYYCARGLWFAMNYWGQGTSVTVSS VL: DIQMTQSSSSFSVSLGDRVTITCKASEDIYNRLAWYQQKPGNTPRLLISGATILETGVPSRFSGSGSGKDYTLSIISLQTEDVATYYCQQYWIIPPTFGGGTKLEIK
4. 4B8: RXFP2 monoclonal antibody from hybridoma, recombinantly expressed in a rat IgG2b backbone (antibody, V domains shown) VH: QVQLKQSGPGLVQPSQSLSITCTVSGFSLSRYGVHWVRQSPGKGLEWLGVIWSGGSTEYNAVFKSRLSISKDNSKSQVFFKMNSLQANDTAIYYCVRADGYYAMEYWGQGTSVTVSS VL: DIQMTQSPASLSVSVGETVTITCRASENIYSNLAWYQQKQGKSPQLLVYAVTNLADGVPSRFSGSGSGTQYSLKINSLQSEDFGNYYCQHFWGTPYTFGGGTKLEIK
5. 3G4: RXFP2 monoclonal antibody from hybridoma, recombinantly expressed in a rat IgG2b backbone (antibody, V domains shown) VH: QVQLKESGPGLVAPSQSLSITCTVSGFSLTSYGVSWVRQPPGKGLEWLGVIWGDGSTNYHSALISRLSISKDNSKSQVFLKLNSLQTDDTATYYCAKSLGYYAMDYWGQGTSVTVSS VL: DIQMTQSPASLSVSVGETVTITCRASENIYSNLVWYQQKQGKSPQLLVYAATNLAEGVPSRFSGSGSGTQYSLKINSLQSEDFGSYYCQHFWGPPWTFGGGTKLEIK
6. 4H1: RXFP2 monoclonal antibody from hybridoma, recombinantly expressed in a rat IgG2b backbone (antibody, V domains shown) VH: QIQLVQSGPELKKPGETVKISCKTSGYTFTKYPMHWVKQAPGEGLKWMGWINTYSGLPTFADDFKGRFAFSLETSANTADLQINNLKNEDMATYFCAREGKKLSGYFDYWGQGTTLTVSS VL: DIKMTQSPSSMYASLGERVTITCKASQDINSYLTWFQQKPGQSPKTLIYRANRFVDGVPSRFSGSGSGQDYSLTITSLEYEDMGIYYCLQYDEFPYTFGGGTQLEIK
7. 4A5: RXFP2 monoclonal antibody from hybridoma, recombinantly expressed in a rat IgG2b backbone (antibody, V domains shown) VH: DVQLVESGGGLVQPGGSRKLSCAASGFTFSTFGMHWVRQAPEKGLEWVAYISSGSSTIYYADTVKGRFTISRDNPKNTLFLQMTSLRSDDTAMYYCSRSYYGSAHYFDYWGQGTTLTVSS VL: DIQMTQSPASLSVSVGETVTITCRASENIYSNLAWYQQKQGKSPQLLVYVATNLADGVPSRFSGSGSGTQYSLRINNLQSEDFGNYYCQHFWGTPPTFGGGTKLEIK

Output:
7.72
7.72
7.55
7.67
7.79
6.82
7.63

Input: May I ask what pIC50 has been recorded for 4H5: RXFP2 monoclonal antibody from hybridoma, recombinantly expressed in a rat IgG2b backbone (antibody, V domains shown) VH: QVQLKQSGPGLVQPSQSLSITCTVSGFSLTNYGVHWVRQSPGKGLEWLGVIWRDGNTDYNAAFMSRLSITKDNSKSQVFFEMNSLQVDDTAIYYCCRGDGYYAMGYWGQGTSVTVSS VL: DIQMTQSPASLSVSVGETVTITCRASENIYSNLAWYQQRQGRSPQLLVYAATNLADGVPSRFSGSGSGTQYSLKINSLQSEDFGNYYCQHFWGSPRTFGGGTKLEIK ?
Output: 7.85

Measured values drawn from paper PMC11162469 for this set.
